Origin of measurements: the supplement of paper PMC11061612

Attribute: Bliss excess
test system: Calu-6 (Non-Small Cell Lung Carcinoma); assay: Bliss excess, mean over the matrix (fraction); higher = more synergy;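 further: after 72 h of two-drug dosing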

Observe how each entry below is paired with its result.
molecule="COc1cccc(OCCCN)c1-c1cc(Nc2cnc(C#N)cn2)n[nH]1 [Prexasertib] + CN(C)CCCOc1ccc(-c2ccc3ncc4c(c3c2)n(C2CCOCC2)c(=O)n4C)cn1 [AZD0156] (first compound max 1 µM, 7x7, partner max 1 µM)" recorded_endpoint="Bliss excess" experimental_value=-0.0507
molecule="CCN(CCO)CCCOc1ccc2c(Nc3cc(CC(=O)Nc4cccc(F)c4)[nH]n3)ncnc2c1 [AZD2811] + C[C@@H]1COCCN1C2=NC(=NC(=C2)C3(CC3)[S@](=N)(=O)C)C4=C5C=CNC5=NC=C4 [AZD6738] (first compound max 1 µM, 7x7, partner max 10 µM)" recorded_endpoint="Bliss excess" experimental_value=-0.0382
molecule="CCN(CCO)CCCOc1ccc2c(Nc3cc(CC(=O)Nc4cccc(F)c4)[nH]n3)ncnc2c1 [AZD2811] + C=CCn1c(=O)c2cnc(Nc3ccc(N4CCN(C)CC4)cc3)nc2n1-c1cccc(C(C)(C)O)n1 [AZD1775] (first compound max 1 µM, partner max 1 µM)" recorded_endpoint="Bliss excess" experimental_value=-0.0028

Send back Calu-6 (Non-Small Cell Lung Carcinoma) Bliss excess of CCN(CCO)CCCOc1ccc2c(Nc3cc(CC(=O)Nc4cccc(F)c4)[nH]n3)ncnc2c1 [AZD2811] + O=C(c1cc(Cc2n[nH]c(=O)c3ccccc23)ccc1F)N1CCN(C(=O)C2CC2)CC1 [Olaparib] (first compound max 1 µM, 7x7, partner max 10 µM) only.
0.0004

Send back Calu-6 (Non-Small Cell Lung Carcinoma) Bliss excess of C[C@@H](c1ccc2nccn2c1)n1nnc2ncc(-c3cnn(C)c3)nc21 [Savolitinib] + CC1(C)CCC(CN2CCN(c3ccc(C(=O)NS(=O)(=O)c4ccc(NCC5CCOCC5)c([N+](=O)[O-])c4)c(Oc4cnc5[nH]ccc5c4)c3)CC2)=C(c2ccc(Cl)cc2)C1 [Venetoclax] (first compound max 1 µM, 7x7, partner max 1 µM) only.
-0.0539

Send back Calu-6 (Non-Small Cell Lung Carcinoma) Bliss excess of CC1(C)CCC(CN2CCN(c3ccc(C(=O)NS(=O)(=O)c4ccc(NCC5CCOCC5)c([N+](=O)[O-])c4)c(Oc4cnc5[nH]ccc5c4)c3)CC2)=C(c2ccc(Cl)cc2)C1 [Venetoclax] + Cn1cnc2c(F)c(Nc3ccc(Br)cc3Cl)c(C(=O)NOCCO)cc21 [Selumetinib] (first compound max 1 µM, 7x7, partner max 3 µM) only.
-0.0665

Send back Calu-6 (Non-Small Cell Lung Carcinoma) Bliss excess of C=CCn1c(=O)c2cnc(Nc3ccc(N4CCN(C)CC4)cc3)nc2n1-c1cccc(C(C)(C)O)n1 [AZD1775] + O=C(c1cc(Cc2n[nH]c(=O)c3ccccc23)ccc1F)N1CCN(C(=O)C2CC2)CC1 [Olaparib] (first compound max 1 µM, partner max 10 µM) only.
-0.0421
